# ASSAY_TEXT: Cytotoxicity against human HuH7 cells
# Type: cell-based
# ASSAY_CONDITIONS: Huh-7 cells
Measured CC50 of individual entries
Answer format: numeric, µM implied, no suffix.

Here are 4 compounds together with their reported answers.
C=C[C@@H]1C[C@]1(NC(=O)[C@@H]1C[C@@H](Oc2nc(-c3ccccc3)cc3cc(OC)ccc23)CN1C(=O)[C@@H](NC(=O)OC(C)(C)C)C(C)(C)C)C(=O)NS(=O)(=O)C1CC1	13
C=C[C@@H]1C[C@]1(NC(=O)[C@@H]1C[C@@H](Oc2nccc3c(C)cccc23)CN1C(=O)[C@@H](NC(=O)OC(C)(C)C)C(C)(C)C)C(=O)NS(=O)(=O)C1CC1	89
C=C[C@@H]1C[C@]1(NC(=O)[C@@H]1C[C@@H](Oc2nccc3cc(C(C)(C)C)ccc23)CN1C(=O)[C@@H](NC(=O)OC(C)(C)C)C(C)(C)C)C(=O)NS(=O)(=O)C1CC1	15
C=C[C@@H]1C[C@]1(NC(=O)[C@@H]1C[C@@H](Oc2nccc3cc(Cl)ccc23)CN1C(=O)[C@@H](NC(=O)OC(C)(C)C)C(C)(C)C)C(=O)NS(=O)(=O)C1CC1	44

Let us examine a further case.
Query CC50 for C=C[C@@H]1C[C@]1(NC(=O)[C@@H]1C[C@@H](Oc2ncc(OC)c3cc(OC)ccc23)CN1C(=O)[C@@H](NC(=O)OC(C)(C)C)C(C)(C)C)C(=O)NS(=O)(=O)C1CC1
45

====

# ASSAY_TEXT: AUC in intraduodenally dosed Sprague-Dawley rat plasma measured over 4 hrs by LC/MS/MS analysis
# Type: ADME, organism-based
# Parameters: time < 4 hr, route intraduodenal
# ASSAY_CONDITIONS: Sprague-Dawley, plasma
Recorded AUC at 4 h split into classes low = under 0.2 µM·h, mid = from 0.2 µM·h up to 1 µM·h, high = 1 µM·h and over

C=C[C@@H]1C[C@]1(NC(=O)[C@@H]1C[C@@H](Oc2nccc3cc(F)ccc23)CN1C(=O)[C@@H](NC(=O)OC(C)(C)C)C(C)(C)C)C(=O)NS(=O)(=O)C1CC1	high

// bin(item) where item = C=C[C@@H]1C[C@]1(NC(=O)[C@@H]1C[C@@H](Oc2ncc(OC)c3ccccc23)CN1C(=O)[C@@H](NC(=O)OC(C)(C)C)C(C)(C)C)C(=O)NS(=O)(=O)C1CC1
mid

// bin(item) where item = C=C[C@@H]1C[C@]1(NC(=O)[C@@H]1C[C@@H](Oc2nccc3cc(OC)ccc23)CN1C(=O)[C@@H](NC(=O)OC(C)(C)C)C(C)(C)C)C(=O)NS(=O)(=O)C1CC1
high

// bin(item) where item = C=C[C@@H]1C[C@]1(NC(=O)[C@@H]1C[C@@H](Oc2cc(-c3ccccc3)nc3cc(OC)ccc23)CN1C(=O)[C@@H](NC(=O)OC(C)(C)C)C(C)(C)C)C(=O)NS(=O)(=O)C1CC1
low

// bin(item) where item = C=C[C@@H]1C[C@]1(NC(=O)[C@@H]1C[C@@H](Oc2nccc3cc(OCC)ccc23)CN1C(=O)[C@@H](NC(=O)OC(C)(C)C)C(C)(C)C)C(=O)NS(=O)(=O)C1CC1
high

// bin(item) where item = C=C[C@@H]1C[C@]1(NC(=O)[C@@H]1C[C@@H](Oc2nccc3c(C)cccc23)CN1C(=O)[C@@H](NC(=O)OC(C)(C)C)C(C)(C)C)C(=O)NS(=O)(=O)C1CC1
high

// bin(item) where item = C=C[C@@H]1C[C@]1(NC(=O)[C@@H]1C[C@@H](Oc2nccc3ccccc23)CN1C(=O)[C@@H](NC(=O)OC(C)(C)C)C(C)(C)C)C(=O)NS(=O)(=O)C1CC1
mid

// bin(item) where item = C=C[C@@H]1C[C@]1(NC(=O)[C@@H]1C[C@@H](Oc2ccnc3cc(OC)ccc23)CN1C(=O)[C@@H](NC(=O)OC(C)(C)C)C(C)(C)C)C(=O)NS(=O)(=O)C1CC1
low
